# System: IGROV1 ovarian
# procedure-text: NCI tumour cell line growth inhibition, 48 h
experimental-readout: TGI (µM)
Value expressed in µM; do not type the unit.

The compound OCCCNC(=S)Nc1ccc(-c2nc3ccccc3s2)cc1 showed TGI equal to 95.4

The compound CCN1CCN(Cc2ccc3cc(C(=O)Nc4cc(NC(=O)c5ccc6c(c5)OCCO6)ccc4F)ccc3n2)CC1 showed TGI equal to 0.848

The compound CC1=C(C(=O)Nc2ccc(Cl)c(Cl)c2)C(c2cccc(O)c2)NC(=S)N1 (centres undefined) showed TGI equal to 44.2

The compound CC[C@]12C=CCN3CCC4(c5cc(N=Nc6ccc([N+](=O)[O-])cc6)c(OC)cc5N(C)[C@H]4[C@@](O)(C(=O)OC)[C@@H]1OC(C)=O)[C@@H]32 (some centres undefined) showed TGI equal to 33.2

###

Provide the recorded TGI for the entries that follow.
# System: NCI-H522 lung
# procedure-text: NCI tumour cell line growth inhibition, 48 h
Value expressed in µM; do not type the unit.

# value of TGI, NCI-H522 lung, item O=C1c2cccnc2-c2nccc3ccnc1c23 = 0.666

# value of TGI, NCI-H522 lung, item O=S(=O)(c1ccccc1)C1CN(Cc2ccccc2)CCN(Cc2ccccc2)C1 = 34.1

# value of TGI, NCI-H522 lung, item C#CCOc1c(OC)cc(C(=O)/C(C)=C/c2cccc(N=[N+]=[N-])c2)cc1OC = 0.8

# value of TGI, NCI-H522 lung, item CCN(CC)CCCC(C)Nc1ccnc2cc(Cl)c(SCc3ccccc3)cc12 (stereo not given) = 2.01

# value of TGI, NCI-H522 lung, item O=C1C=CC(=O)N1CCCCCCCCCCN1C(=O)C=CC1=O = 3.41

# value of TGI, NCI-H522 lung, item CC1=C/C(=C(/c2ccc(O)c(C)c2)c2ccccc2C(=O)O)C=CC1=O = 42.7

# value of TGI, NCI-H522 lung, item Oc1ccc2c3c1OC1c4[nH]c5c(c4CC4(O)C(C2)N(CC2CC2)CC[C@]314)CC1(O)C2Cc3ccc(O)c4c3[C@@]1(CCN2CC1CC1)C5O4 (stereo not given in full) = 49.3

# value of TGI, NCI-H522 lung, item Cc1ccc2cccc(OC(=O)c3cc4c(cc3Cl)Sc3nccn3S4(=O)=O)c2n1 = 38

###

# Test system: SR leukemia
# procedure-text: NCI tumour cell line growth inhibition, 48 h
experimental-readout: TGI

The compound COc1ccc(C2S/C(=C\c3cccc([N+](=O)[O-])c3)C(=O)N2NC(=O)Cc2ccccc2)cc1 (stereo not given) showed TGI equal to > 100 µM

The compound Cc1ccc(S(=O)(=O)N/N=C2/CC[C@H](C(C)(C)C)C[C@@H]2C)cc1 showed TGI equal to > 100 µM

The compound CCOC(=O)C1=C(N)Oc2cc(OC)ccc2C1c1ccc(F)c(F)c1 (stereo not given) showed TGI equal to 16.7 µM

The compound [O-][n+]1onc2c1-c1nonc1CC2 showed TGI equal to > 100 µM

The compound Cc1ccc2nc(Cl)c(/C=N/N3C(=O)/C(=C/Cc4ccco4)N=C3c3ccccc3)cc2c1 showed TGI equal to > 100 µM

The compound COc1ccc2c(c1)CC[C@@H]1[C@@H]2CC[C@]2(C)c3c(cc(C(=O)c4ccccc4)c4sccc34)C[C@@H]12 showed TGI equal to > 100 µM

The compound O=C(NO)c1ccc(OCc2ccccc2)cc1 showed TGI equal to 90.9 µM

The compound Cc1ccc(S(=O)(=O)N2C/C(=C\c3cc(F)cc(F)c3)C(=O)/C(=C/c3cc(F)cc(F)c3)C2)cc1 showed TGI equal to 0.296 µM

The compound O=C(O)CCCC#CCCCC(=O)O showed TGI equal to > 100 µM

The compound CCOC(=O)c1nc2ccc(C(F)(F)F)cc2nc1Nc1ccc(OC)c(OC)c1 showed TGI equal to > 100 µM

###

Provide the recorded GI50 for the entries that follow.
# Test system: HCC-2998 colon
# procedure-text: NCI tumour cell line growth inhibition, 48 h

The compound COc1cc2c3c(n(CCCN4CCOCC4)c(=O)c2cc1OC)-c1cc2c(cc1C3=O)OCO2 showed GI50 equal to 10.7 µM

The compound C(#Cc1ccccc1C#Cc1ccccn1)c1ccc(OCCCCCCOc2ccc(C#Cc3ccccc3C#Cc3ccccn3)cc2)cc1 showed GI50 equal to 6.83 µM

The compound Cc1ccc(S(=O)(=O)C2=C3C(=C(c4ccccc4)c4ccccc43)CN(S(=O)(=O)c3ccc(C)cc3)C2)cc1 showed GI50 equal to 22.5 µM

The compound COc1ccc2oc(-c3ccc(Cl)cc3)c(N3CCN(C)CC3)c2c1 showed GI50 equal to 2.02 µM

###

# Tested on: OVCAR-4 ovarian
# procedure-text: NCI tumour cell line growth inhibition, 48 h; in the data active = GI50 below about 0.43 µM; inactive = the rest
Lab note: assign the record to one of label 1 for active, label 0 for inactive

Test call, this compound: COc1ccc2c(c1)CC[C@@H]1[C@@H]2CC[C@]2(C)c3c(cc(C(=O)c4ccccc4)c4sccc34)C[C@@H]12
label 0

Test call, this compound: Cc1ccc(S(=O)(=O)N2C/C(=C\c3cc(F)cc(F)c3)C(=O)/C(=C/c3cc(F)cc(F)c3)C2)cc1
label 1

Test call, this compound: CCN1CCN(Cc2ccc3cc(C(=O)Nc4cc(NC(=O)c5ccc6c(c5)OCCO6)ccc4F)ccc3n2)CC1
label 1

Test call, this compound: O=CNc1ccc2c(c1)Cc1cc([N+](=O)[O-])ccc1-2
label 0

###

# Tested on: OVCAR-8 ovarian
# procedure-text: NCI tumour cell line growth inhibition, 48 h
experimental-readout: TGI

The compound COc1ccc2c(c1)c(=O)oc1cc(OC/C(=N\O)c3ccc(F)cc3)ccc12 showed TGI equal to 97.5 µM

The compound CN(CCNC(=O)c1cc(-c2ccccc2)nc2ccccc12)CCNC(=O)c1cc(-c2ccccc2)nc2ccccc12 showed TGI equal to > 100 µM

The compound [O-][n+]1onc2c1-c1nonc1CC2 showed TGI equal to > 100 µM

The compound O=C1/C(=C/c2cccc3ccccc23)Cc2ccccc21 showed TGI equal to > 100 µM

The compound COC(=O)/C(Cl)=C1/CC1COCc1ccccc1 (stereo unspecified) showed TGI equal to > 100 µM

The compound N=C(N)c1ccc(-c2ccc(-c3ccco3)o2)cc1F showed TGI equal to 6.53 µM

###

# System: NCI-H226 lung
# procedure-text: NCI tumour cell line growth inhibition, 48 h
experimental-readout: TGI

The compound CC(=O)O[C@@H]1CC(=O)O[C@@H]2C[C@@H](CC/C(Cl)=C/C/C=C\1C)O[C@@H]2CO showed TGI equal to > 25 µM

The compound COC(=O)c1c/c(=N\NC(=O)CC(=O)Nc2ccc(C)cc2)c2ccccc2o1 showed TGI equal to > 100 µM

The compound CNC(=S)N/N=C(/C)CCC/C(C)=N/NC(=S)NC showed TGI equal to > 100 µM

The compound COC(=O)CCC(=O)C(C#N)c1ccc(Cl)cc1Cl (stereo not given) showed TGI equal to > 100 µM

The compound CCN1CCN(Cc2ccc3cc(C(=O)Nc4cc(NC(=O)c5ccc6c(c5)OCCO6)ccc4F)ccc3n2)CC1 showed TGI equal to 3.45 µM

###

# Test system: NCI-H226 lung
# procedure-text: NCI tumour cell line growth inhibition, 48 h
Parameter threshold = 80 µM. Response is 1 when TGI meets or exceeds it, else 0.

Quick check, TGI >= 80 µM? Cn1c(C2CC(C)(C)c3c2c2ccccc2n3C)cc2ccccc21 (stereo unspecified)
1

Quick check, TGI >= 80 µM? Oc1ccc2c3c1OC1c4[nH]c5c(c4CC4(O)C(C2)N(CC2CC2)CC[C@]314)CC1(O)C2Cc3ccc(O)c4c3[C@@]1(CCN2CC1CC1)C5O4 (stereo partly specified)
1

Quick check, TGI >= 80 µM? O=CNc1ccc2c(c1)Cc1cc([N+](=O)[O-])ccc1-2
1

Quick check, TGI >= 80 µM? CC(C)C(/C=C/c1ccc(Cl)cc1)=N\NC(=S)NN
1

Quick check, TGI >= 80 µM? CCOCC[P+](c1ccccc1)(c1ccccc1)c1ccccc1
1

Quick check, TGI >= 80 µM? CCC(CCCCC1CC[C@H]2CC(=O)C[C@@H]12)OC (stereo partly specified)
1

Quick check, TGI >= 80 µM? CC1(CC(=O)OC(C#C[Si](C)(C)C)Cc2ccccc2)OCCO1 (stereo unspecified)
1

Quick check, TGI >= 80 µM? COc1ccc2nc(-c3ccc(O)cc3)cn2c1
1

Quick check, TGI >= 80 µM? COc1ccc(N2C(=O)CC(c3c[nH]c4ccccc34)C2=O)cc1 (stereo unspecified)
1

Quick check, TGI >= 80 µM? O=C(Nc1cc(Cl)cc(Cl)c1)c1ccc(NC2=C(Cl)C(=O)N(Cc3ccccc3)C2=O)cc1
0

Quick check, TGI >= 80 µM? CCCNNC(=O)c1ccc(CNC(=O)/C=C/c2ccccc2)cc1
0

Quick check, TGI >= 80 µM? Clc1cccc(Cl)c1C1SCc2nc3ncccc3n21 (stereo unspecified)
1

Quick check, TGI >= 80 µM? Cc1ccc(C2CC(c3cccc(Nc4ccncc4)c3)=NN2c2ccc(Cl)cc2)cc1 (stereo unspecified)
0

Quick check, TGI >= 80 µM? O=C(O)c1cn(C2CC2)c2cc(N3CCN(C(=O)Nc4nc(-c5ccc(Cl)cc5)cs4)CC3)c(F)cc2c1=O
1
